The values you see were collected from patent US12077503B2.

- System: barnyardgrass (Echinochloa crus-galli)
- assay.summary: Test B flooded paddy test
- Format: in vivo
- condition.details: Echinochloa crus-galli, Flood, 250 g ai/ha; scale of 0 to 100 where 0 is no effect and 100 is complete control; read-out: Barnyardgrass plant response rating
Please mark class 1 if the recorded pest or weed control at 250 g/ha is equal to or greater than 80%, and class 0 if it falls below.

Worked examples, 5 compounds total:
CN1C[C@H](c2cccc(F)c2)[C@@H](C(=O)Nc2ccccc2F)C1=O class 0
Cc1cc(F)cc([C@H]2CN(C)C(=O)[C@@H]2C(=O)Nc2cccc(F)c2C#N)c1 class 1
Cc1c(F)ccc([C@H]2CN(C)C(=O)[C@@H]2C(=O)Nc2ccccc2S(C)(=O)=O)c1F class 0
CCOc1ccc([C@H]2CNC(=O)[C@@H]2C(=O)Nc2cccc(F)c2F)cc1 class 0
Cc1ccc(NC(=O)[C@H]2C(=O)N(C)C[C@@H]2c2cc(F)cc(F)c2)c(F)c1F class 1

*Q* Is pest or weed control at 250 g/ha at least 80%? Consider COc1c(F)ccc([C@H]2CN(C)C(=O)[C@@H]2C(=O)Nc2ccc(F)cc2F)c1Cl
*A* class 0

*Q* Is pest or weed control at 250 g/ha at least 80%? Consider CN1C[C@H](c2nccs2)[C@@H](C(=O)Nc2cccc(F)c2F)C1=O
*A* class 0

*Q* Is pest or weed control at 250 g/ha at least 80%? Consider Cc1ccc([C@H]2CN(C)C(=O)[C@@H]2C(=O)Nc2cccc(F)c2C)cc1F
*A* class 0
